Measured pest or weed control at 80 g/ha, listed per entry.
- Test system: ABUTH
- methodSummary: Pre-emergence herbicidal action against ABUTH
- Type: in vivo, Abutilon theophrasti
- experimentalConditions: Abutilon theophrasti, 504 h, 80 g/ha, scored visually after 3 weeks vs untreated controls (100% = plants have died, 0% = like control plants)
quantityKind: pest or weed control at 80 g/ha (%)

1. CCCNC(=O)c1c(C(F)(F)F)ccc(C(=O)Nc2nnnn2CC)c1C [Example 2-32]; 100
2. CCNC(=O)c1c(Br)ccc(C(=O)Nc2nnnn2CC)c1Br [Example 2-342]; 100
3. CCNC(=O)c1c(C(F)(F)F)ccc(C(=O)Nc2nnnn2C)c1SC [Example 1-82]; 100
4. CCn1nnnc1NC(=O)c1ccc(C(F)(F)F)c(C(=O)NC)c1Cl [Example 2-129]; 100
5. Cn1nnnc1NC(=O)c1ccc(Br)c(C(=O)NC2CC2)c1Br [Example 1-344]; 100
6. CNC(=O)c1c(C(F)(F)C(F)(F)F)ccc(C(=O)Nc2nnnn2C)c1Cl [Example 1-165]; 100
7. CCn1nnnc1NC(=O)c1ccc(C(F)F)c(C(=O)NC2CC2)c1Cl [Example 2-149]; 100
8. CCNC(=O)c1c(C(F)(F)F)ccc(C(=O)Nc2nnnn2CC)c1C [Example 2-26]; 100
9. CCc1c(C(=O)Nc2nnnn2C)ccc(C(F)(F)F)c1C(=O)NC [Example 1-271]; 100
10. CCn1nnnc1NC(=O)c1ccc(I)c(C(=O)NC2CC2)c1Cl [Example 2-197]; 100
11. Cc1c(C(=O)Nc2nnnn2C)ccc(C(F)F)c1C(=O)NC(C)C [Example 1-346]; 100
12. Cc1nnc(NC(=O)c2ccc(C(F)(F)F)c(C(=O)NC(C)C)c2C)o1 [Example 6-255]; 100
13. CCNC(=O)c1c(I)ccc(C(=O)Nc2nnnn2CC)c1Cl [Example 2-196]; 100
14. CCNC(=O)c1c(C(F)F)ccc(C(=O)Nc2nnnn2CC)c1Cl [Example 2-148]; 100
15. Cc1c(C(=O)Nc2nnnn2C)ccc(C(F)(F)F)c1C(=O)NC1COC1 [Example 1-41]; 100
16. CSc1c(C(=O)Nc2nnnn2C)ccc(C(F)F)c1C(=O)NC1CC1 [Example 1-89]; 100
17. Cn1nnnc1NC(=O)c1ccc(C(F)(F)F)c(C(=O)NC2CC2)c1Cl [Example 1-131]; 100
18. CCNC(=O)c1c(C(F)(F)F)ccc(C(=O)Nc2nnnn2C)c1C [Example 1-26]; 100

---

Measured Post-emergence action against ABUTH in %, listed per entry.
- Tested on: ABUTH
- methodSummary: Post-emergence herbicidal action against ABUTH
- Format: in vivo, Abutilon theophrasti
- experimentalConditions: dosage 5 g/ha, visual assessment about 3 weeks after treatment vs untreated controls
quantityKind: Post-emergence action against ABUTH in % (%)

1) CCn1nnnc1NC(=O)c1ccc(C(F)F)c(C(=O)NC(C)C2CC2)c1C (centres unmarked); 80
2) CSc1c(C(=O)Nc2nnnn2C)ccc(C(F)F)c1C(=O)NCC(F)F; 90
3) CCn1nnnc1NC(=O)c1ccc(C(F)F)c(C(=O)NC)c1C; 80
4) CCn1nnnc1NC(=O)c1ccc(Br)c(C(=O)NC(C)C)c1Cl; 90
5) CCn1nnnc1NC(=O)c1ccc(C(F)F)c(C(=O)NC2CC2)c1C; 80
